List of EC50 values.
Biological target: Oxytocin receptor (Homo sapiens)
Sequence (P30559 whole entry): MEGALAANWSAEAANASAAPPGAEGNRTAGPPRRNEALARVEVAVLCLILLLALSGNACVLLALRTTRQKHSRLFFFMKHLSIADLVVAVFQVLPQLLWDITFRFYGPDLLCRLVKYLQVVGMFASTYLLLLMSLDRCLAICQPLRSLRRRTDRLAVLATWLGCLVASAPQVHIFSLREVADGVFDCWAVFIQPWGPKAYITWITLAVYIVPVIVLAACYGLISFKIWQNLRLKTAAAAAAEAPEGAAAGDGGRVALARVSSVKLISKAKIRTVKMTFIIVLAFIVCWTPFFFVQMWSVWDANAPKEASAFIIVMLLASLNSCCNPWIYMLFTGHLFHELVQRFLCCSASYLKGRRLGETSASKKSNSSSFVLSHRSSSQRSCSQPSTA
Assay: Agonist activity at human OTR expressed in CHO cells assessed as calcium mobilization measured after 30 mins by Fluo-4-AM dye based FLIPR assay
Bridge positions count the residues as written; N and C are the ends. Square brackets hold non-standard residues; d marks the D form. Peptide text beside a SMILES is read from it. Mpa = O=C(O)CCS
Quick note: unit goes after the number.

1) CC(C)C[C@H](NC(=O)[C@@H]1CCCN1C(=O)[C@@H]1CSSCCC(=O)N[C@@H](Cc2ccc(O)cc2)C(=O)N[C@@H](CO)C(=O)N[C@@H](CCC(N)=O)C(=O)N[C@@H](CC(N)=O)C(=O)N1)C(=O)NCC(N)=O ([Mpa]YSQNCPLG-NH2; disulfide 1-6) : 40 nM

Pending compound:
Recorded EC50 for CC[C@H](C)[C@@H]1NC(=O)[C@H](Cc2ccc(O)cc2)NC(=O)CCSSC[C@@H](C(=O)N2CCC[C@H]2C(=O)N[C@@H](CC(C)C)C(=O)N[C@@H](CCCNC(=N)N)C(N)=O)NC(=O)[C@H](CC(N)=O)NC(=O)[C@H](CCC(N)=O)NC1=O ([Mpa]YIQNCPLR-NH2; disulfide 1-6) on Oxytocin receptor (Homo sapiens) was 0.53 nM

###

organism: Homo sapiens; experiment: Selectivity ratio of EC50 for human V1b receptor to EC50 for human OTR
Numbered stars: 1 amine (or outer) side, 2 acyl side, 3 side chain; on linkers, the order of the positions; unused ones are H or OH. Bridge positions count the residues as written; N and C are the ends. Square brackets hold non-standard residues; d marks the D form. Peptide text beside a SMILES is read from it. Hyp = O=C(O)[C@@H]1C[C@@H](O)CN1; tBuAla = CC(C)(C)C[C@H](N)C(=O)O; Suc = O=C(CCC(=O)[*:2])[*:1]; X1 = O=C(CCC[*:2])[*:1]; Dap = NC[C@H](N)C(=O)O; Mpa = O=C(O)CCS; Sar = CNCC(=O)O
quantity.kind: Ratio EC50

1) CC[C@H](C)[C@@H]1NC(=O)[C@H](Cc2ccc(O)cc2)NC(=O)CCSSC[C@@H](C(=O)N(C)CC(=O)N[C@@H](CC(C)C)C(=O)NCC(N)=O)NC(=O)[C@H](CC(N)=O)NC(=O)[C@H](CCC(N)=O)NC1=O ([Mpa]YIQNC[Sar]LG-NH2; disulfide 1-6) : > 10000
2) CC[C@H](C)[C@@H]1NC(=O)[C@H](Cc2ccc(O)cc2)NC(=O)CCCSC[C@@H](C(=O)N2CCC[C@H]2C(=O)N[C@@H](CC(C)(C)C)C(=O)NCC(N)=O)NC(=O)[C@H](CC(N)=O)NC(=O)[C@H](CCC(N)=O)NC1=O (YIQNCP[tBuAla]G-NH2; linker N-5 via X1) : > 10000
3) CC[C@H](C)[C@@H]1NC(=O)[C@H](Cc2ccc(O)cc2)NC(=O)CCSSC[C@@H](C(=O)N2CCC[C@H]2C(=O)N[C@@H](CC(C)C)C(=O)N[C@@H](CCC(=O)O)C(N)=O)NC(=O)[C@H](CC(N)=O)NC(=O)[C@H](CCC(N)=O)NC1=O ([Mpa]YIQNCPLE-NH2; disulfide 1-6) : > 10
4) CC[C@H](C)[C@@H]1NC(=O)[C@H](Cc2ccc(O)cc2)NC(=O)CCSSC[C@@H](C(=O)N2CCC[C@H]2C(=O)N[C@@H](CO)C(=O)NCC(N)=O)NC(=O)[C@H](CC(N)=O)NC(=O)[C@H](CCC(N)=O)NC1=O ([Mpa]YIQNCPSG-NH2; disulfide 1-6) : 12
5) CC[C@H](C)[C@@H]1NC(=O)[C@H](Cc2ccc(O)cc2)NC(=O)CCC(=O)NC[C@@H](C(=O)N2C[C@H](O)C[C@H]2C(=O)N[C@@H](CC(C)C)C(=O)NCC(N)=O)NC(=O)[C@H](CC(N)=O)NC(=O)[C@H](CCC(N)=O)NC1=O (YIQN[Dap][Hyp]LG-NH2; linker N-5 via Suc) : > 1000

So, CC[C@H](C)[C@@H]1NC(=O)[C@H](Cc2ccc(O)cc2)NC(=O)CCC(=O)NC[C@@H](C(=O)N2CCC[C@H]2C(=O)N[C@@H](CC(C)C)C(=O)NCC(N)=O)NC(=O)[C@H](CC(N)=O)NC(=O)[C@H](CCC(N)=O)NC1=O (YIQN[Dap]PLG-NH2; linker N-5 via Suc) ? Its Ratio EC50 was > 100

Data point: CC[C@H](C)[C@@H]1NC(=O)[C@H](Cc2ccc(O)cc2)NC(=O)CCCSC[C@@H](C(=O)N2CCC[C@H]2C(=O)N[C@@H](CC(C)C)C(=O)NCC(N)=O)NC(=O)[C@H](CC(N)=O)NC(=O)[C@H](CCC(N)=O)NC1=O (YIQNCPLG-NH2; linker N-5 via X1) ; Ratio EC50 = 970
